Source listed as PubChem BioAssay AID1259318.

- ASSAY TARGET: Nuclear receptor subfamily 1 group D member 1 (Homo sapiens)
- ASSAY INFO: modulators of Rev-erb alpha DNA binding, primary screen, biochemical, FITC-DNA, fluorescence polarization, uHTS (AID 1259318);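 also: 0% = DMSO wells with 35 nM protein and 100% = DMSO wells with 750 nM protein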
- CONDITION LABEL: Rev-erbα–FITC-DNA binding, 90 min, at 10 µM
Hit rate of the full screen: of about 370,000 compounds, about 3,000 (0.81%) were called active.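 The calls were made as follows: active = activity above about 14% (limit read from the data; passing the limit was not always enough); inactive = the rest.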 What follows is part of a selection rich in actives, with near analogues and random picks from the rest.
Labels: yes (active), no (inactive)

{"columns": ["COMPOUND", "ASSIGNED CLASS"],
 "data": [
  ["Cc1cc(=O)oc(C)c1C(=O)NC1CC(C)(C)NC(C)(C)C1", "no"],
  ["COC(=O)C1=C(C)N(Cc2ccccc2C(F)(F)F)C(=NCc2ccc(OC)cc2)NC1c1cccc(C(F)(F)F)c1 (stereo unspecified)", "no"],
  ["Cc1ccc2nc(C)c3c(c2c1)N(c1ccccc1)CC3", "no"],
  ["CCCNC(=O)CCc1c(C)nc2c(c(C)nn2-c2ccccc2)c1C", "no"],
  ["Cc1ccc2c(C(=O)CN3CCCC3)c(C)[nH]c2c1", "no"],
  ["COc1ccc(CCC(C)N2CCc3ccccc3C2)cc1 (stereo unspecified)", "no"],
  ["COc1cc(NS(=O)(=O)c2ccc(NC(=O)c3ccc(S(=O)(=O)N4CCCCC4)cc3)cc2)ncn1", "no"],
  ["COc1ccc(-n2ncc3c(N4CCc5ccccc54)ncnc32)cc1", "yes"],
  ["c1ccc(-c2cc(-c3nnc4sc(-c5ccccn5)nn34)[nH]n2)cc1", "yes"],
  ["Cc1cc(=O)oc(C)c1C(=O)N1CCCCC1", "yes"],
  ["CN(C(=O)COc1ncnc2c1cnn2-c1ccccc1)C1CCCCC1", "no"]
]}

====

Documented activity across a set of molecules
- ASSAY TARGET: Nuclear receptor subfamily 1 group D member 1 (Homo sapiens) (UniProt P20393)
- Sequence (P20393 whole entry, looked up): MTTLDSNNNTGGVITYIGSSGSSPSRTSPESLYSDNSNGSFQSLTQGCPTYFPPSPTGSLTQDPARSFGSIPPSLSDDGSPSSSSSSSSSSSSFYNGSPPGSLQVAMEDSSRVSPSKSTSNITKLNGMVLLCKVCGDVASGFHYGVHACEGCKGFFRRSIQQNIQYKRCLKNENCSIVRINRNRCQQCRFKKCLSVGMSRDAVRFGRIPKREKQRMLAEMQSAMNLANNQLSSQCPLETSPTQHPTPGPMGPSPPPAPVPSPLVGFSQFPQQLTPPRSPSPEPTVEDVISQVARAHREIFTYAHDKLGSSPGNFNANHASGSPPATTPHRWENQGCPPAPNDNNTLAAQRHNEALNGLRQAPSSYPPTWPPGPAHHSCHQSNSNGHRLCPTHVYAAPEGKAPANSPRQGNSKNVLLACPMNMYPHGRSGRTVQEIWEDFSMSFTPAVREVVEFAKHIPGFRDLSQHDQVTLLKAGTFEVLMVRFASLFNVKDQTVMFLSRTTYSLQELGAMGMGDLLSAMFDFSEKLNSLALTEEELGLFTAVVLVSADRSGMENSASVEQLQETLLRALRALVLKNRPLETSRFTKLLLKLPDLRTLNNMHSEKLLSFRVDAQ
- ASSAY INFO: modulators of Rev-erb alpha DNA binding, primary screen, biochemical, FITC-DNA, fluorescence polarization, uHTS (AID 1259318);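 also: 0% = DMSO wells with 35 nM protein and 100% = DMSO wells with 750 nM protein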
- CONDITION LABEL: Rev-erbα–FITC-DNA binding, 90 min, at 10 µM, hits give high values
Out of some 370,000 compounds screened, about 3,000 (0.81%) were called active. Shown is part of a subset that was picked to be rich in actives.
QUANTITY KIND: activity (%)

{"columns": ["MOLECULE", "ASSAY TARGET", "QUANTITY KIND", "UNIT LABEL", "OBS VALUE"],
 "data": [
  ["COc1ccc(CN2C(=O)C(CC(=O)NCCCCc3ccccc3)CC(C(=O)N3CCOCC3)=C2C)cc1 (stereo not given)", "Nuclear receptor subfamily 1 group D member 1 (Homo sapiens) (UniProt P20393)", "activity", "%", 0.56],
  ["CN(CC1CCCN(CCc2cccc(C(F)(F)F)c2)C1)C(=O)c1ccc2nc[nH]c2c1 (stereo not given)", "Nuclear receptor subfamily 1 group D member 1 (Homo sapiens) (UniProt P20393)", "activity", "%", 4.2],
  ["O=C(/C=C/c1ccc(Cl)cc1)Nc1ccc(Br)cn1", "Nuclear receptor subfamily 1 group D member 1 (Homo sapiens) (UniProt P20393)", "activity", "%", -0.31],
  ["CN1C(=O)c2ccc(NC(=O)c3c(F)c(F)c(F)c(F)c3F)cc2C1=O", "Nuclear receptor subfamily 1 group D member 1 (Homo sapiens) (UniProt P20393)", "activity", "%", -2.78],
  ["N#Cc1cccc(NC(=O)COC(=O)c2ccccc2C(=O)c2ccc(Cl)c([N+](=O)[O-])c2)c1", "Nuclear receptor subfamily 1 group D member 1 (Homo sapiens) (UniProt P20393)", "activity", "%", 3.08],
  ["CC(=O)C1(C(=O)Nc2nccs2)CC(c2ccccc2C(F)(F)F)=NO1 (stereo not given)", "Nuclear receptor subfamily 1 group D member 1 (Homo sapiens) (UniProt P20393)", "activity", "%", 2.17],
  ["CCCc1cc(=S)n2c([nH]c3ccccc32)c1C#N", "Nuclear receptor subfamily 1 group D member 1 (Homo sapiens) (UniProt P20393)", "activity", "%", -0.23],
  ["C=CCN1C(=O)[C@@H](CC(=O)NCC2CCCCC2)[C@]2(C(=O)OC)CCCCC=C12", "Nuclear receptor subfamily 1 group D member 1 (Homo sapiens) (UniProt P20393)", "activity", "%", 8.08],
  ["CCC(C(=O)NC1CCCCC1)N(C(=O)c1snc(C(N)=O)c1N)c1ccc(OC)cc1OC (stereo not given)", "Nuclear receptor subfamily 1 group D member 1 (Homo sapiens) (UniProt P20393)", "activity", "%", 2.92],
  ["COCCNc1nc(-c2ccccc2)nc2c1oc1ccccc12", "Nuclear receptor subfamily 1 group D member 1 (Homo sapiens) (UniProt P20393)", "activity", "%", 7.87]
]}
